Recorded values, source ChEMBL document CHEMBL1138960.

assay: Solubility at pH 2.0; type: physicochemical; details: buffer
molecules and their reported solubility

Consider the following illustrative entries.
- CHEM SMILES: "COCCOCC(=O)NS(=O)(=O)c1ccc(Nc2nc(N)n(C(=O)c3c(F)cccc3F)n2)cc1"
  solubility: "5.4 µg/mL"
- CHEM SMILES: "CCOC(=O)CCC(=O)NS(=O)(=O)c1ccc(Nc2nc(N)n(C(=O)c3c(F)cccc3F)n2)cc1"
  solubility: "0.2 µg/mL"
- CHEM SMILES: "Nc1nc(Nc2ccc(S(=O)(=O)NC(=O)CCN3CCOCC3)cc2)nn1C(=O)c1c(F)cccc1F"
  solubility: "14 µg/mL"
- CHEM SMILES: "Nc1nc(Nc2ccc(S(=O)(=O)NC(=O)CCC(=O)O)cc2)nn1C(=O)c1c(F)cccc1F"
  solubility: "0.7 µg/mL"
- CHEM SMILES: "NCC(=O)NS(=O)(=O)c1ccc(Nc2nc(N)n(C(=O)c3c(F)cccc3F)n2)cc1"
  solubility: "130 µg/mL"
- CHEM SMILES: "Nc1nc(Nc2ccc(S(N)(=O)=O)cc2)nn1C(=O)c1c(F)cccc1F"
  solubility: "6 µg/mL"
- CHEM SMILES: "CN1CCN(CCC(=O)NS(=O)(=O)c2ccc(Nc3nc(N)n(C(=O)c4c(F)cccc4F)n3)cc2)CC1"
  solubility: "> 1000 µg/mL"

Read the next record carefully.
Short answer for Nc1nc(Nc2ccc(S(=O)(=O)NC(=O)[C@H](N)CO)cc2)nn1C(=O)c1c(F)cccc1F : solubility was 440 µg/mL
